- protocolSummary: photochromic response on an optical bench in ethyl cellulose resin (lambda max, sensitivity, saturation optical density, bleach rate)
- Assay type: physicochemical
- conditionSummary: activated (colored) form, in ethyl cellulose resin
# Lookup of reported Lambda max Band A keyed by entry
Lab note: record just the number, no unit beside it.

**Q:** Recorded Lambda max Band A for COc1ccccc1C1(c2cc3ccccc3o2)C=Cc2c(ccc3sc4ccccc4c23)O1 (centres unmarked) , please?
**A:** 482

**Q:** Please give the measured Lambda max Band A for this compound: C1=CC(c2ccccc2)(c2csc3ccccc23)Oc2ccc3oc4ccccc4c3c21 (centres unmarked)
**A:** 444

**Q:** For C1=CC(c2ccccc2)(c2csc3ccccc23)Oc2ccc3ccccc3c21 (centres unmarked) , what is its reported Lambda max Band A?
**A:** 440

**Q:** # lookup: Lambda max Band A of C1=CC(c2ccccc2)(c2cc3ccccc3o2)Oc2ccc3ccccc3c21 (centres unmarked)
**A:** 467

**Q:** # input compound: C1=CC(c2ccccc2)(c2ccccc2)Oc2ccc3oc4ccccc4c3c21 [Comparative Example 2, reference compound] ; wanted: its Lambda max Band A
**A:** 430

**Q:** Request the reported Lambda max Band A associated with Fc1ccccc1C1(c2cc3ccccc3o2)C=Cc2c(ccc3ccccc23)O1 (centres unmarked)
**A:** 462

**Q:** Which Lambda max Band A is listed for C1=CC(c2ccccc2)(c2ccccc2)Oc2ccc3ccccc3c21 [Comparative Example 1, 3,3-diphenyl-3H-naphtho [2,1-b]pyran, reference compound] ?
**A:** 432

**Q:** Given C1=CC(c2ccccc2)(c2cc3ccccc3s2)Oc2ccc3oc4ccccc4c3c21 (centres unmarked) , state its recorded Lambda max Band A.
**A:** 476

**Q:** Form field: reported Lambda max Band A of C1=CC(c2ccccc2)(c2cc3ccccc3o2)Oc2ccc3oc4ccccc4c3c21 (centres unmarked)
**A:** 453

**Q:** Please look up its Lambda max Band A: COc1ccccc1C1(c2cc3ccccc3o2)C=Cc2cc3oc4ccccc4c3cc2O1 (centres unmarked)
**A:** 448

**Q:** Given the entry C1=CC(c2ccccc2)(c2cc3ccccc3s2)Oc2ccc3ccccc3c21 (centres unmarked) , report its measured Lambda max Band A.
**A:** 460

###

- protocolSummary: photochromic response on an optical bench in ethyl cellulose resin (lambda max, sensitivity, saturation optical density, bleach rate)
- Type: physicochemical
- conditionSummary: UV exposure 15 minutes; ethyl cellulose resin
- Protocol: The photochromic compounds prepared in the Examples and the Comparative Examples were incorporated into an ethyl cellulose resin by the following procedure. About 30 milligrams of the photochromic compound was added to 2.0 grams of a 10 weight percent ethyl cellulose solution in toluene. […] The Δ OD/Min, which represents the sensitivity of the photochromic compound's response to UV light, was measured over the first five (5) seconds of UV exposure, then expressed on a per minute basis. […]
Assign labels as follows, please: condition met for Δ OD @ SAT (saturation optical density) below 0.3; condition not met for Δ OD @ SAT (saturation optical density) equal to or exceeding 0.3.

Study these solved cases before continuing.
[[record]]
compound = "C1=CC(c2ccccc2)(c2cc3ccccc3s2)Oc2ccc3ccccc3c21 (centres unmarked)"
qualitativelabel = "condition not met"

[[record]]
compound = "COc1ccccc1C1(c2cc3ccccc3o2)C=Cc2c(ccc3sc4ccccc4c23)O1 (centres unmarked)"
qualitativelabel = "condition not met"

[[record]]
compound = "C1=CC(c2ccccc2)(c2cc3ccccc3o2)Oc2ccc3ccccc3c21 (centres unmarked)"
qualitativelabel = "condition not met"

[[record]]
compound = "C1=CC(c2ccccc2)(c2ccccc2)Oc2ccc3ccccc3c21 [Comparative Example 1, 3,3-diphenyl-3H-naphtho [2,1-b]pyran, reference compound]"
qualitativelabel = "condition not met"

[[record]]
compound = "C1=CC(c2ccccc2)(c2csc3ccccc23)Oc2ccc3ccccc3c21 (centres unmarked)"
qualitativelabel = "condition not met"


**Q:** Quick check: does C1=CC(c2ccccc2)(c2ccccc2)Oc2ccc3oc4ccccc4c3c21 [Comparative Example 2, reference compound] have Δ OD @ SAT (saturation optical density) under 0.3?
**A:** condition met

**Q:** Is it true that Δ OD @ SAT (saturation optical density) reported for C1=CC(c2ccccc2)(c2cc3ccccc3s2)Oc2ccc3oc4ccccc4c3c21 (centres unmarked) is less than 0.3?
**A:** condition met

**Q:** Consider C1=CC(c2ccccc2)(c2csc3ccccc23)Oc2ccc3oc4ccccc4c3c21 (centres unmarked) . Does its Δ OD @ SAT (saturation optical density) lie strictly below 0.3?
**A:** condition met

**Q:** Answer whether the compound Fc1ccccc1C1(c2cc3ccccc3o2)C=Cc2c(ccc3ccccc23)O1 (centres unmarked) has Δ OD @ SAT (saturation optical density) strictly less than 0.3
**A:** condition not met

**Q:** Given the entry COc1ccccc1C1(c2cc3ccccc3o2)C=Cc2cc3oc4ccccc4c3cc2O1 (centres unmarked) , would its reported Δ OD @ SAT (saturation optical density) be below 0.3?
**A:** condition not met

**Q:** Please let me know if C1=CC(c2ccccc2)(c2cc3ccccc3o2)Oc2ccc3oc4ccccc4c3c21 (centres unmarked) shows Δ OD @ SAT (saturation optical density) below 0.3.
**A:** condition not met

###

Recorded Bleach rate T 1/2 by entry
- protocolSummary: photochromic response on an optical bench in ethyl cellulose resin (lambda max, sensitivity, saturation optical density, bleach rate)
- Assay type: physicochemical
- conditionSummary: time to one half the highest absorbance at room temperature (72° F., 22.2° C.) after removal of activating light; ethyl cellulose resin

Worked set:
[[record]]
molecule = "C1=CC(c2ccccc2)(c2csc3ccccc23)Oc2ccc3oc4ccccc4c3c21 (centres unmarked)"
recordedvalue = "2.97 min"

[[record]]
molecule = "C1=CC(c2ccccc2)(c2ccccc2)Oc2ccc3oc4ccccc4c3c21 [Comparative Example 2, reference compound]"
recordedvalue = "1.42 min"

[[record]]
molecule = "C1=CC(c2ccccc2)(c2cc3ccccc3s2)Oc2ccc3oc4ccccc4c3c21 (centres unmarked)"
recordedvalue = "3.77 min"


**Q:** Please give the measured Bleach rate T 1/2 for this molecule: C1=CC(c2ccccc2)(c2cc3ccccc3o2)Oc2ccc3oc4ccccc4c3c21 (centres unmarked)
**A:** 5.18 min

**Q:** Consider the molecule COc1ccccc1C1(c2cc3ccccc3o2)C=Cc2cc3oc4ccccc4c3cc2O1 (centres unmarked) and give its measured Bleach rate T 1/2.
**A:** > 20 min

**Q:** Given the molecule C1=CC(c2ccccc2)(c2ccccc2)Oc2ccc3ccccc3c21 [Comparative Example 1, 3,3-diphenyl-3H-naphtho [2,1-b]pyran, reference compound] , what is its reported Bleach rate T 1/2?
**A:** 0.533 min

**Q:** What does the data say about its Bleach rate T 1/2? Entry: C1=CC(c2ccccc2)(c2cc3ccccc3o2)Oc2ccc3ccccc3c21 (centres unmarked)
**A:** 5.75 min

**Q:** Request the reported Bleach rate T 1/2 associated with C1=CC(c2ccccc2)(c2csc3ccccc23)Oc2ccc3ccccc3c21 (centres unmarked)
**A:** 1.55 min

**Q:** // Bleach rate T 1/2 lookup, key: COc1ccccc1C1(c2cc3ccccc3o2)C=Cc2c(ccc3sc4ccccc4c23)O1 (centres unmarked)
**A:** > 20 min

**Q:** Request the reported Bleach rate T 1/2 associated with Fc1ccccc1C1(c2cc3ccccc3o2)C=Cc2c(ccc3ccccc23)O1 (centres unmarked)
**A:** > 30 min

**Q:** Give its Bleach rate T 1/2 value. Item: C1=CC(c2ccccc2)(c2cc3ccccc3s2)Oc2ccc3ccccc3c21 (centres unmarked)
**A:** 2.03 min

###

The reader will find reported Lambda max Band B values listed item by item below.
- protocolSummary: photochromic response on an optical bench in ethyl cellulose resin (lambda max, sensitivity, saturation optical density, bleach rate)
- Assay type: physicochemical
- conditionSummary: activated (colored) form, in ethyl cellulose resin
Provide a numeric answer; units are not to be included.

The examples below pair each entry with its known result.
[[record]]
compound = "COc1ccccc1C1(c2cc3ccccc3o2)C=Cc2c(ccc3sc4ccccc4c23)O1 (stereo not drawn) [Example 10]"
recordedvalue = 532

[[record]]
compound = "C1=CC(c2ccccc2)(c2ccccc2)Oc2ccc3oc4ccccc4c3c21 [Comparative Example 2, reference compound]"
recordedvalue = 522

[[record]]
compound = "COc1ccccc1C1(c2cc3ccccc3o2)C=Cc2cc3oc4ccccc4c3cc2O1 (stereo not drawn) [Example 6]"
recordedvalue = 507

[[record]]
compound = "C1=CC(c2ccccc2)(c2cc3ccccc3o2)Oc2ccc3oc4ccccc4c3c21 (stereo not drawn) [Example 4]"
recordedvalue = 482

[[record]]
compound = "C1=CC(c2ccccc2)(c2csc3ccccc23)Oc2ccc3oc4ccccc4c3c21 (stereo not drawn) [Example 9]"
recordedvalue = 515


Turning to the following compound.
**Q:** Using the record for C1=CC(c2ccccc2)(c2cc3ccccc3s2)Oc2ccc3oc4ccccc4c3c21 (stereo not drawn) [Example 8] , report its Lambda max Band B.
**A:** 545

###

A collection of compounds and their measured Sensitivity Δ OD/MIN
- protocolSummary: photochromic response on an optical bench in ethyl cellulose resin (lambda max, sensitivity, saturation optical density, bleach rate)
- Type: physicochemical
- conditionSummary: first five (5) seconds of UV exposure, expressed on a per minute basis; ethyl cellulose resin; 75° F. (23.9° C.)
Please state the figure in OD/MIN; there is no need to write the unit.

[[record]]
compound = "COc1ccccc1C1(c2cc3ccccc3o2)C=Cc2c(ccc3sc4ccccc4c23)O1 (centres unmarked)"
measuredquantity = "Sensitivity Δ OD/MIN"
recordedvalue = 0.66

[[record]]
compound = "C1=CC(c2ccccc2)(c2cc3ccccc3s2)Oc2ccc3ccccc3c21 (centres unmarked)"
measuredquantity = "Sensitivity Δ OD/MIN"
recordedvalue = 0.76

[[record]]
compound = "Fc1ccccc1C1(c2cc3ccccc3o2)C=Cc2c(ccc3ccccc23)O1 (centres unmarked)"
measuredquantity = "Sensitivity Δ OD/MIN"
recordedvalue = 0.59

[[record]]
compound = "C1=CC(c2ccccc2)(c2ccccc2)Oc2ccc3ccccc3c21 [Comparative Example 1, 3,3-diphenyl-3H-naphtho [2,1-b]pyran, reference compound]"
measuredquantity = "Sensitivity Δ OD/MIN"
recordedvalue = 0.87


**Q:** Fill in: Sensitivity Δ OD/MIN of C1=CC(c2ccccc2)(c2cc3ccccc3o2)Oc2ccc3oc4ccccc4c3c21 (centres unmarked) is ___
**A:** 0.26

**Q:** Dear colleague, I am looking for the recorded Sensitivity Δ OD/MIN of the following compound: C1=CC(c2ccccc2)(c2cc3ccccc3o2)Oc2ccc3ccccc3c21 (centres unmarked)
**A:** 1.15

**Q:** Can you look up the measured Sensitivity Δ OD/MIN of COc1ccccc1C1(c2cc3ccccc3o2)C=Cc2cc3oc4ccccc4c3cc2O1 (centres unmarked) for me?
**A:** 0.49

**Q:** // lookup Sensitivity Δ OD/MIN for C1=CC(c2ccccc2)(c2csc3ccccc23)Oc2ccc3ccccc3c21 (centres unmarked)
**A:** 0.62

**Q:** For C1=CC(c2ccccc2)(c2ccccc2)Oc2ccc3oc4ccccc4c3c21 [Comparative Example 2, reference compound] , what is its reported Sensitivity Δ OD/MIN?
**A:** 0.42

**Q:** Field request: Sensitivity Δ OD/MIN | item: C1=CC(c2ccccc2)(c2csc3ccccc23)Oc2ccc3oc4ccccc4c3c21 (centres unmarked)
**A:** 0.22

**Q:** Given the entry C1=CC(c2ccccc2)(c2cc3ccccc3s2)Oc2ccc3oc4ccccc4c3c21 (centres unmarked) , report its measured Sensitivity Δ OD/MIN.
**A:** 0.25
